# Tested system: Recombinant human Bcl-2 protein (Homo sapiens (Human), UniProt P10415)
# Sequence (P10415 whole entry): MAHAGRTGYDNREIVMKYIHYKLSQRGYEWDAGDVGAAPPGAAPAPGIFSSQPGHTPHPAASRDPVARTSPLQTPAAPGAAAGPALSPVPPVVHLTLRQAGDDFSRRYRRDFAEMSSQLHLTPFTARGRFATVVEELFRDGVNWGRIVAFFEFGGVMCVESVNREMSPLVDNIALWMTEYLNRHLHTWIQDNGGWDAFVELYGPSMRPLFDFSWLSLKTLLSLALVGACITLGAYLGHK
# Assay info: Bcl-2 TR-FRET Assay
# Format: binding
# Experimental context: Bcl-2 wild type, TR-FRET; read-out: Biochemical assay (IC50, nM) Bcl-2 WT
# Experimental: Biological Example: Bcl-2 TR-FRET Assay Compounds disclosed herein were tested for blocking of Bcl-2 protein with its ligand in an assay based on Time-Resolved Fluorescence Resonance Energy Transfer (TR-FRET) methodology. […] The TR-FRET signals (337 nm-520 nm-490 nm) were read on BMG PHERAstar FSX instrument. The inhibition percentage of Bcl-2 interaction with its ligand in presence of increasing concentrations of compounds was calculated based on the TR-FRET signals. […]
Doc: threshold 0.3 nM (exclusive). Items with IC50 beneath it return t; others return f.

Look over these answered cases.
Lookup: Dear reviewer, please state whether CC(C)c1ccccc1[C@@H]1CN(Cc2ccc(F)c(F)c2)CCN1C1CC2(C1)CN(c1ccc(C(=O)NS(=O)(=O)c3ccc(NC[C@H]4CC[C@](C)(O)CC4)c([N+](=O)[O-])c3)c(Oc3cnc4[nH]ccc4c3)c1)C2 has IC50 strictly beneath 0.3 nM.
Found: t

Lookup: Please state whether IC50 is below 0.3 nM for CC(C)c1ccccc1C1CN(Cc2cccc3sccc23)CCN1C1CC2(CCN(c3ccc(C(=O)NS(=O)(=O)c4ccc(NC[C@H]5CC[C@](C)(O)CC5)c([N+](=O)[O-])c4)c(Oc4cnc5[nH]ccc5c4)c3)CC2)C1 (stereo partly shown)
Found: f

Lookup: IC50 strictly < 0.3 nM for this molecule? COc1cc(CN2CCN(C3CC4(C3)CN(c3ccc(C(=O)NS(=O)(=O)c5ccc(NC[C@H]6CC[C@](C)(O)CC6)c([N+](=O)[O-])c5)c(Oc5cnc6[nH]ccc6c5)c3)C4)[C@H](c3ccccc3C(C)C)C2)cc2c1OCC2(C)C
Found: t

Lookup: Find out if reported IC50 for COc1cc(CN2CCN(C3CC4(C3)CN(c3ccc(C(=O)NS(=O)(=O)c5ccc(NC[C@H]6CC[C@](C)(O)CC6)c([N+](=O)[O-])c5)c(Oc5cnc6[nH]cc(F)c6c5)c3)C4)[C@H](c3ccccc3C(C)C)C2)ccc1Cl is less than 0.3 nM
Found: f

Lookup: Given the entry CC(C)c1ccccc1C1CN(Cc2cnn(C)c2)CCN1C1CC2(CCN(c3ccc(C(=O)NS(=O)(=O)c4ccc(NC[C@H]5CC[C@](C)(O)CC5)c([N+](=O)[O-])c4)c(Oc4cnc5[nH]ccc5c4)c3)CC2)C1 (single isomer, unassigned) [Example 22a] , would its reported IC50 be below 0.3 nM?
Found: t

Continuing:
Lookup: Is IC50 of COc1ccc(CN2CCN(C3CC4(C3)CN(c3ccc(C(=O)NS(=O)(=O)c5ccc(NCC67CC8CC(C6)C(OC)C(C8)C7)c([N+](=O)[O-])c5)c(Oc5cnc6[nH]cc(F)c6c5)c3)C4)[C@H](c3ccccc3C(C)C)C2)cc1 (stereo partly shown) strictly below 0.3 nM?
Found: f

Lookup: Check if IC50 falls below 0.3 nM for CC(C)c1ccccc1C1CN(Cc2ccc(Cl)cc2)CCN1C1CC2(CCN(c3ccc(C(=O)NS(=O)(=O)c4ccc(NC[C@H]5CC[C@](C)(O)CC5)c([N+](=O)[O-])c4)c(Oc4cnc5[nH]ccc5c4)c3)CC2)C1 (stereo partly shown) .
Found: t

Lookup: Below 0.3 nM on IC50? Entry COc1ccc(CN2CCN(C3CC4(CCN(c5ccc(C(=O)NS(=O)(=O)c6ccc(NC[C@H]7CC[C@](C)(O)CC7)c([N+](=O)[O-])c6)c(Oc6cnc7[nH]ccc7c6)c5)CC4)C3)[C@H](c3ccccc3C(C)C)C2)cc1OC [Example 81a]
Found: t

Lookup: Lab note: IC50 threshold 0.3 nM. Does this molecule come in strictly under it? COc1ccc(CN2CCN(C3CC4(CCN(c5ccc(C(=O)NS(=O)(=O)c6ccc(NC[C@H]7CC[C@](C)(O)CC7)c([N+](=O)[O-])c6)c(Oc6cnc7[nH]ccc7c6)c5)CC4)C3)C(c3ccccc3C(C)C)C2)cc1OC1CC1 (stereo partly shown)
Found: t

Lookup: Regarding COc1cc(CN2CCN(C3CC4(C3)CN(c3ccc(C(=O)NS(=O)(=O)c5ccc(NC[C@H]6CC[C@](C)(O)CC6)c([N+](=O)[O-])c5)c(Oc5cnc6[nH]cc(F)c6c5)c3)C4)[C@H](c3ccccc3C(C)C)C2)ccc1F , kindly confirm whether its IC50 is beneath 0.3 nM.
Found: t

Lookup: Here's an entry: CCOc1cc(CN2CCN(C3CC4(CCN(c5ccc(C(=O)NS(=O)(=O)c6ccc(NC[C@H]7CC[C@](C)(O)CC7)c([N+](=O)[O-])c6)c(Oc6cnc7[nH]ccc7c6)c5)CC4)C3)C(c3ccccc3C(C)C)C2)ccc1OC (stereo partly shown) . Is its IC50 below 0.3 nM?
Found: t

Lookup: State whether 0.3 nM exceeds IC50 recorded for COc1cc(CN2CCN(C3CC4(C3)CN(c3ccc(C(=O)NS(=O)(=O)c5ccc(NC[C@H]6CC[C@](C)(O)CC6)c([N+](=O)[O-])c5)c(Oc5cnc6[nH]cc(F)c6c5)c3)C4)[C@H](c3ccccc3C(C)C)C2)ccc1C1CCOCC1 .
Found: f

Lookup: Is the reported IC50 for COc1cc(CN2CCN(C3CC4(CCN(c5ccc(C(=O)NS(=O)(=O)c6ccc(NC[C@H]7CC[C@](C)(O)CC7)c([N+](=O)[O-])c6)c(Oc6cnc7[nH]ccc7c6)c5)CC4)C3)C(c3ccccc3C(C)C)C2)cc(C)c1OC (stereo partly shown) strictly below 0.3 nM?
Found: t

Lookup: # TODO verify IC50 < 0.3 nM strictly for this molecule: CC(C)c1ccccc1C1CN(C2CCC2)CCN1C1CC2(CCN(c3ccc(C(=O)NS(=O)(=O)c4ccc(NC[C@H]5CC[C@](C)(O)CC5)c([N+](=O)[O-])c4)c(Oc4cnc5[nH]ccc5c4)c3)CC2)C1 (stereo partly shown)
Found: t

Lookup: Would you kindly verify if IC50 of CC(C)c1ccccc1C1CN(CCc2ccccc2)CCN1C1CC2(CCN(c3ccc(C(=O)NS(=O)(=O)c4ccc(NC[C@H]5CC[C@](C)(O)CC5)c([N+](=O)[O-])c4)c(Oc4cnc5[nH]ccc5c4)c3)CC2)C1 (stereo partly shown) is strictly less than 0.3 nM?
Found: t

Lookup: Is it true that IC50 reported for COc1cc(CN2CCN(C3CC4(C3)CN(c3ccc(C(=O)NS(=O)(=O)c5ccc(NC[C@H]6CC[C@](C)(O)CC6)c([N+](=O)[O-])c5)c(Oc5cnc6[nH]ccc6c5)c3)C4)[C@H](c3ccccc3C(C)C)C2)ccc1OC1CC1 is less than 0.3 nM?
Found: t

Source listed as patent US20240376097A1.
